- MEASUREMENT TARGET: Sialic acid-binding Ig-like lectin 9 (Homo sapiens)
- ASSAY TEXT: Hs-Siglec9 ALPHAscreen SOP 20170721
- Parameters: scale not given: direction of the effect not stated beside the values
- CONDITION SUMMARY: 10 µM
Kindly state Percent Effect for each of the entries shown.
Reply numerically in %, unit not repeated.

Asked: What value of Percent Effect has been reported for the following molecule? COc1cnc(C2(O)CCN(C(=O)c3cccnc3)CC2)c(OC)n1
Given back: 7.31

Asked: Suppose we examine the molecule Cc1ccc(F)c(-n2nnc(C(=O)O)c2-c2ccncc2)c1 ; what Percent Effect value has been reported?
Given back: -1.83

Asked: What value of Percent Effect has been reported for the following molecule? CCNC(=O)c1ccnc(NCC2COc3cc(OC)ccc3C2)c1 (configuration not stated)
Given back: 2.93

Asked: Can you look up the measured Percent Effect of O=C(NCCCN1CCc2ccccc2C1)c1cccnc1O for me?
Given back: 3.3

Asked: Endpoint output: Percent Effect of c1cnc(N2CCC3(CCN(CC4CC4)CC3)CC2)nc1 . Value?
Given back: -1.99

Asked: I would be grateful if you could share the reported Percent Effect for CC(NC(=O)CSCC#N)c1ccccc1 (configuration not stated) .
Given back: -7.6

Asked: If you can, please state the reported Percent Effect value of Cc1cnc(CN(C)C2CCN(CCc3cnn(C)c3)C2)o1 (configuration not stated) .
Given back: 0.368

Asked: # query: Percent Effect of entry O=C(CO)N1CCc2onc(Cn3cccn3)c2C1
Given back: 3.29

Asked: Recorded Percent Effect for Cc1ccc(CN(C)C(=O)CN2CCCC2Cn2cccn2)o1 (configuration not stated) , please?
Given back: 12.4

Asked: // Percent Effect lookup, key: O=S(=O)(CCCN1CCCC1Cn1cccn1)c1ccccc1 (configuration not stated)
Given back: 19.1

Asked: Look up Percent Effect: CC(=O)N1CC(=O)N(c2ccccc2)CC12CCN(CC1CC1)C2 (configuration not stated)
Given back: 22.2

Asked: Which Percent Effect value belongs to CN(C)C(CNC(=O)NCCc1cccc(O)c1)c1ccco1 (configuration not stated) ?
Given back: 22.4

* * *

Field: Percent Effect. Provide a value for each of the compounds that follow.
- MEASUREMENT TARGET: Proteasome subunit beta (Trypanosoma cruzi) (UniProt O96673)
- Sequence (whole entry): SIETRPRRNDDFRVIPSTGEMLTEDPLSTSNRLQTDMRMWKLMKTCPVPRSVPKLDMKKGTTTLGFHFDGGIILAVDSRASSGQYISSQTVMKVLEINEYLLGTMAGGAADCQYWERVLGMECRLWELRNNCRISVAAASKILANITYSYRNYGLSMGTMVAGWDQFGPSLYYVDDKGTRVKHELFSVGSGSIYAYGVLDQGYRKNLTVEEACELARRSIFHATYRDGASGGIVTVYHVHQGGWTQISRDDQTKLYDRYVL
- ASSAY TEXT: Trypanosoma cruzi proteasome chymotrypsin-like activity (TcProtChymo) assay. Note: in the data most compounds retested in dose-response had high values.
- Assay type: functional
- Set-up: scale not given: direction of the effect not stated beside the values
- CONDITION SUMMARY: 9.37 µM
Write it as a number; the unit % goes unstated.

Asked: Looking for the measured Percent Effect of CN1[C@H](Cn2cccn2)C[C@@H]2CN(C(=O)Cc3cccs3)CC[C@@H]21 , can you help?
Given back: 9.53

Asked: Look at this compound and give its reported Percent Effect. Cc1cccc(CN2C(=O)CO[C@@H]3CN(Cc4nccn4C)C[C@H]32)c1
Given back: 20.5

Asked: Bench note: what Percent Effect did O=C(NC[C@H]1OC[C@@H]2CCN(Cc3ccco3)C[C@@H]21)c1ccsc1 show?
Given back: 11.2

Asked: Returns the measured Percent Effect for the input compound. Input: Cc1ncsc1C(=O)NCc1cccs1
Given back: 14

Asked: Look up Percent Effect: O=C(Nc1nncs1)NC1CCOc2ccccc21 (centres undefined)
Given back: 9.85

Asked: # lookup: Percent Effect of O=C(NCc1ccco1)[C@H]1C[C@H]2OCC[C@H]2N(C(=O)c2ccncc2)C1
Given back: 7.18

Asked: What value of measured Percent Effect is listed for CC(=O)N1CCc2c(nc(-c3ccccn3)nc2N(C)CC(O)CO)C1 (centres undefined) ?
Given back: 3.94

Asked: Returns the measured Percent Effect for the input compound. Input: c1cc2n(n1)CC(CNCc1ccc(OC3CCCCC3)nc1)CN2 (centres undefined)
Given back: 5.41

Asked: # lookup: Percent Effect of Cc1cc(C2CCCN(C(=O)c3cnccn3)C2)ccn1 (centres undefined)
Given back: 8.27

Asked: What does the data say about its Percent Effect? Entry: CC(=O)NCCNC(=O)c1sc(-c2ccc(C)cc2C)nc1C
Given back: 8.26

Asked: Any idea what Percent Effect was measured for O=C(COC(=O)Cc1cccs1)NCc1cccc(NC(=O)C2CC2)c1 ?
Given back: 3.47

Asked: Name the recorded Percent Effect for O=C(c1nn(-c2ccccc2F)cc1O)N1CCCC1 .
Given back: -6.1

Asked: Look up Percent Effect for this compound: CC(NC(=O)CCCOc1ccccc1Cl)c1ccncc1 (centres undefined)
Given back: 6.39

Asked: Quick one: Percent Effect for CCN(CC)C(=O)c1nnn(Cc2ccccc2)c1OC ?
Given back: 8.32

Asked: I would be grateful if you could share the reported Percent Effect for O=C(O)CCc1cccc(C2CCCN2Cc2ccc(F)c(F)c2)n1 (centres undefined) .
Given back: 1.09

Asked: // returns reported Percent Effect for input Cc1nnc(C(C)NCC2(c3c(F)cccc3F)CCCC2)o1 (centres undefined)
Given back: 7.93

Asked: Requested field: Percent Effect. Item: Cc1ccc2c(c1)OCCCC2NCc1nnc2n1CCCCC2 (centres undefined)
Given back: 0.772

Asked: Returns the measured Percent Effect for the input compound. Input: COc1ccc(CN2CCN(C(C)=O)CC3(CC(=O)N(C)C3)C2)cc1 (centres undefined)
Given back: 6.44

Asked: Please give the measured Percent Effect for this compound: COCCn1cc(C(=O)N2CCCC2c2cc(C)no2)ccc1=O (centres undefined)
Given back: 9.48

Asked: Report Percent Effect for CCc1nccn1C1CCCN(C(=O)c2csc(NC(C)=O)n2)C1 (centres undefined) please.
Given back: 8.95

Asked: Recorded Percent Effect for Cc1cccc(N2CC[C@@H]3CN(Cc4csc(C)n4)CCO[C@@H]3C2)n1 , please?
Given back: 7.15

Asked: Item CCn1cnnc1CNC(=O)N(C)Cc1ccc(F)c(F)c1 has what recorded Percent Effect?
Given back: 7.57

Asked: I have this compound here, CCOc1ccccc1-c1noc(CN(C)Cc2cnn(C)c2)n1 , and I need its recorded Percent Effect.
Given back: 11.9

Asked: Field request: Percent Effect | item: Cc1ccc2c(n1)N(CCn1cccn1)CCN(C(=O)NC1CC1)C2
Given back: 18.1
